molecular target: human heart chymase (Homo sapiens, UniProt P23946); experiment: biochemical; conditions: Chymase inhibitive activity (IC50), Ang I substrate, 37° C., 30 min, pH 7.5
Sequence (P23946 22-247): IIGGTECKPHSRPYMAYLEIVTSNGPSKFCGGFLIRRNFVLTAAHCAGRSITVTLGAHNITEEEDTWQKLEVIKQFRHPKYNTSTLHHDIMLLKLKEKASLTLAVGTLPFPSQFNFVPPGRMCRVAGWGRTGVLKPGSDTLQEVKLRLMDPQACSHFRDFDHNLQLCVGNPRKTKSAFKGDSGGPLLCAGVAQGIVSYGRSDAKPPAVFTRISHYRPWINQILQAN
pIC50: −log10 of the molar value.
Assign a class from recorded pIC50; defined classes: lo = under 6, mid = from 6 up to 7, hi = 7 and over

• O=C(Cn1c(=O)n(S(=O)(=O)c2ccc(Cl)cc2)c(=O)c2ccc(Cl)cc21)Nc1cccc(OP(=O)(O)O)c1 = hi
• O=C(Cn1c(=O)n(S(=O)(=O)c2ccc(Cl)cc2)c(=O)c2ccc(Cl)cc21)Nc1ccc(CN2CCOCC2)cc1 = mid
• CC(=O)c1ccc(S(=O)(=O)n2c(=O)[nH]c3cc(Cl)ccc3c2=O)cc1 = mid
• O=c1[nH]c2ccccc2c(=O)n1S(=O)(=O)c1ccc(Cl)cc1 = lo
• O=c1[nH]c2cc(Cl)ccc2c(=O)n1S(=O)(=O)c1ccc(Cl)cc1F = lo
• O=C(Cn1c(=O)n(S(=O)(=O)c2ccc(Cl)cc2)c(=O)c2ccc(Cl)cc21)Nc1ccc(C(=O)O)cc1C(=O)O = mid
• Cn1c(=O)n(S(=O)(=O)c2ccc(Cl)cc2)c(=O)c2ccc(Cl)cc21 = lo
• O=c1[nH]c2cc(Cl)ccc2c(=O)n1S(=O)(=O)c1ccc[nH]1 = lo
• O=C(Cn1c(=O)n(S(=O)(=O)c2ccc(Cl)cc2)c(=O)c2ccc(Cl)cc21)Nc1cccnc1 = hi
• O=C(Cn1c(=O)n(S(=O)(=O)c2ccc(Cl)cc2)c(=O)c2ccc(Cl)cc21)Nc1ccncc1 = hi
• Cn1ccc(S(=O)(=O)n2c(=O)c3ccc(Cl)cc3n(CC(=O)Nc3cccnc3)c2=O)c1 = lo
• Cc1ccc(S(=O)(=O)n2c(=O)c3ccc(Cl)cc3n(CC(=O)Nc3cccnc3)c2=O)cc1 = mid
